Reference source for all entries: ChEMBL document CHEMBL1153328

Biological target: Tyrosine-protein kinase ITK/TSK (Homo sapiens, UniProt Q08881)
Sequence (Q08881 whole entry): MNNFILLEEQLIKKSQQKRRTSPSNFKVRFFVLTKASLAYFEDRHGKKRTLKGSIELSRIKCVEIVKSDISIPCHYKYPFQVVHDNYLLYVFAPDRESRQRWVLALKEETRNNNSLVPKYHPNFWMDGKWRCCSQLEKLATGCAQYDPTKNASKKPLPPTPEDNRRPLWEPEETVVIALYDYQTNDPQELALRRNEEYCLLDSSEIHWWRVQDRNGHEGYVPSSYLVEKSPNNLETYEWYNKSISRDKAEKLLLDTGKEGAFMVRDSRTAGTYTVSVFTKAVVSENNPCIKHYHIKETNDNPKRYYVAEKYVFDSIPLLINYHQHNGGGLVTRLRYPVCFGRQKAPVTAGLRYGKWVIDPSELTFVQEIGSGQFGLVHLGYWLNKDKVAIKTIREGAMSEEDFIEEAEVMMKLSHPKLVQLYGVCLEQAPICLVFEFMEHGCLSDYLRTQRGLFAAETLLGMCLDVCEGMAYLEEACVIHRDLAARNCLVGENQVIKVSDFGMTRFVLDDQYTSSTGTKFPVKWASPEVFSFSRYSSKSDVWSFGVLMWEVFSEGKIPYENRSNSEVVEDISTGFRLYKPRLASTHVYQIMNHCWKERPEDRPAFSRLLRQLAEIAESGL
Assay: Inhibition of ITK in presence of 1 mM ATP
quantityKind: IC50 (nM)
Give the value in nM but do not write nM after it.

// worked examples, IC50 included
{"compound": "CC(C)(O)Cn1/c(=N/C(=O)c2ccc(-c3cn[nH]c3)s2)[nH]c2cc(CN3CCCCC3CO)ccc21 (stereo unspecified)", "IC50 / nM": 660}
{"compound": "CC1COCC(C)N1Cc1ccc2c(c1)[nH]/c(=N\\C(=O)c1ccc(-c3cn[nH]c3)s1)n2CC(C)(C)O (stereo unspecified)", "IC50 / nM": 98}

(Q) Query (compound): C[C@H](NCc1ccc2c(c1)[nH]/c(=N\C(=O)c1ccc(-c3cn[nH]c3)s1)n2CC(C)(C)O)C(C)(C)C ; field requested: IC50
(A) 13

(Q) Request: CCC(C)NCc1ccc2c(c1)nc(NC(=O)c1ccc(-c3cn[nH]c3)s1)n2CC(C)(C)O (stereo unspecified)
(A) 390

(Q) Request: C[C@@H](NCc1ccc2c(c1)nc(NC(=O)c1ccc(-c3cn[nH]c3)s1)n2CC(C)(C)O)C(C)(C)C
(A) 20

(Q) Request: C[C@@H](N(C)Cc1ccc2c(c1)nc(NC(=O)c1ccc(-c3cn[nH]c3)s1)n2CC(C)(C)O)C(C)(C)C
(A) 20

(Q) Request: CC(C)(O)Cn1c(NC(=O)c2ccc(-c3cn[nH]c3)s2)nc2cc(CNC3CCCCC3)ccc21
(A) 99
